- System Name: enkephalinase (enkephalin dipeptidylcarboxypeptidase)
- Protocol: Determination of enkephalinasic (enkephalin dipeptidylcarboxypeptidasic) activity and effect of inhibitors, striatal membrane fraction, 3H-leucine-enkephalin
- Conditions Used: 10 nM leucine-enkephalin 3H, 25° C., pH 7.4, 15 mn, read-out: 50% inhibitory concentration
Readout: pIC50
Scale for pIC50: -log10 of concentration given in mol/L; no unit attached.

# get_value(readout='pIC50', item= CC(C)C[C@H](NC(=O)[C@H](Cc1ccccc1)NCC(=O)O)C(=O)O [Compound 2] ) 5.82

# get_value(readout='pIC50', item= O=C(CNC(=O)C(CS)Cc1ccccc1)NCc1ccccc1 (stereo not drawn) [Compound 60] ) 7.52

# get_value(readout='pIC50', item= CC(=O)SCC(Cc1ccccc1)C(=O)NCC(=O)OCc1ccc(F)cc1 (stereo not drawn) [Compound 54] ) 6.59

# get_value(readout='pIC50', item= CC(C)C[C@H](NC(=O)[C@H](Cc1ccccc1)SCCS)C(=O)O [Compound 35] ) 6.40

# get_value(readout='pIC50', item= CC(=O)SCC(Cc1ccccc1)C(=O)NCC(=O)OCC(F)(F)F (stereo not drawn) [Compound 55] ) 6.46

# get_value(readout='pIC50', item= CC(C)C[C@H](NC(=O)[C@@H](Cc1ccccc1)NCC(=O)O)C(=O)O [Compound 5] ) 4.70

# get_value(readout='pIC50', item= CC(=O)SCC(Cc1ccccc1)C(=O)NCC(=O)NCc1ccccc1 (stereo not drawn) [Compound 56] ) 6.40

# get_value(readout='pIC50', item= O=C(O)CNC(=O)C(CS)Cc1ccccc1 (racemic) [Compound 20] ) 8.30

Turning now to a further compound:
# get_value(readout='pIC50', item= C[C@H](NC(=O)[C@@H](S)Cc1ccccc1)C(=O)O [Compound 32] ) 7.00

The reported numbers originate from patent US4513009A.
